Hi there, I'd appreciate the recorded Ag Score for every entry that follows.
# target of assay: T1, RSV F antigen (respiratory syncytial virus (RSV), UniProt P03420 26-524)
# T1 construct: also called F antigen of RSV; RSV F protein
# T1 sequence (P03420 26-524): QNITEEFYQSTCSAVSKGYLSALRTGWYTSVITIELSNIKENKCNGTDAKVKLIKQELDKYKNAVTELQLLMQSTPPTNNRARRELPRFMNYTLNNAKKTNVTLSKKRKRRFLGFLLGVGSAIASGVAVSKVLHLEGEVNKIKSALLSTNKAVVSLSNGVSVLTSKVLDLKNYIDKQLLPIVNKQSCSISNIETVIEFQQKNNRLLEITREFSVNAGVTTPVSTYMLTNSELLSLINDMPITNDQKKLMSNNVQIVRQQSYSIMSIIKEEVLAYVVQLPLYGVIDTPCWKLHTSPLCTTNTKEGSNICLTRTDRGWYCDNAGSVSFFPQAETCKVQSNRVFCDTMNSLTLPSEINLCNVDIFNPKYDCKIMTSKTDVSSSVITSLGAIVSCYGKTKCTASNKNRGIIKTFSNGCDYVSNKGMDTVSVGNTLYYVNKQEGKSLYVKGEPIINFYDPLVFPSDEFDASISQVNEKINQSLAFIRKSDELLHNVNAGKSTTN
# experiment notes: antibody titration ELISA on 500 ng RSV F antigen; qualitative score from titration curves

Entry clone 20 (SFSF) (antibody, V domains shown) VH: QVTLRESGPALVKPTQTLTLTCTFSGFSLSTSGMSVGWIRQPPGKALEWLADIWWDDKKDYNPSLKSRLTISKDTSKNQVVLKVTNMDPADTATYYCARSMITNFYFDVWGQGTTVTVSS VL: DIQMTQSPSTLSASVGDRVTITCSASSSVGYMHWYQQKPGKAPKLLIYDTSKLASGVPSRFSGSGSGTEFTLTISSLQPDDFATYYCFQGSFYPFTFGGGTKVEIK needs its Ag Score filled in; supply it.
2 arbitrary score (0-4)

Give reported Ag Score value for clone 19 (SFSW) (antibody, V domains shown) VH: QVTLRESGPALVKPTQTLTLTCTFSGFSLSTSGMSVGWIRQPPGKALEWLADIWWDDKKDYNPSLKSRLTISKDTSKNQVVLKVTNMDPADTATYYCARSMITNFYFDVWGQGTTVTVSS VL: DIQMTQSPSTLSASVGDRVTITCSASSSVGYMHWYQQKPGKAPKLLIYDTSKLASGVPSRFSGSGSGTEFTLTISSLQPDDFATYYCFQGSWYPFTFGGGTKVEIK
2 arbitrary score (0-4)

In one line, give reported Ag Score of the entry clone 1 (AFSF) (Fab, V domains shown) VH: QVTLRESGPALVKPTQTLTLTCTFSGFSLSTAGMSVGWIRQPPGKALEWLADIWWDDKKDYNPSLKSRLTISKDTSKNQVVLKVTNMDPADTATYYCARSMITNFYFDVWGQGTTVTVSS VL: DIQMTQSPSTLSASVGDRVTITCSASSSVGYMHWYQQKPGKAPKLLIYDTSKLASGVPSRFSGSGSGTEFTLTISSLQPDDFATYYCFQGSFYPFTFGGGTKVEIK .
4 arbitrary score (0-4)
